# Tested on: Candida parapsilosis
# Assay method text: Antifungal activity against azole-susceptible Candida parapsilosis ATCC 90018 assessed as reduction in fungal growth incubated for 48 hrs by broth microdilution method
# Assay type: functional
# Protocol conditions: Lodderomyces parapsilosis, ATCC 90018, 48 h
Quantity measured: log10 of MIC (log10 of the value in µg/mL)
# log10 transformed; quantity=MIC; unit=µg/mL

Past entries and their recorded results:
>>> test_value("CSc1ccc(C(=O)O/N=C(\\Cn2ccnc2)c2ccc(Cl)cc2Cl)cc1.Cl")
0.30
>>> test_value("Cl.O=C(OC(Cn1ccnc1)c1ccc(Cl)cc1Cl)C1CCCCC1 (racemic)")
0.60
>>> test_value("CC(C)c1ccc(C(=O)OC(Cn2ccnc2)c2ccc(Cl)cc2Cl)cc1.Cl (racemic)")
2.11
>>> test_value("Cl.O=C(OC(Cn1ccnc1)c1ccc(Cl)cc1Cl)c1ccc(-c2ccccc2)cc1 (racemic)")
-0.60
>>> test_value("Cl.O=C(O/N=C(\\Cn1ccnc1)c1ccc(Cl)cc1Cl)c1ccc2ccccc2n1")
2.41
>>> test_value("Cl.O=C(OC(Cn1ccnc1)c1ccc(Cl)cc1Cl)c1ccc([N+](=O)[O-])cc1 (racemic)")
0.60

Given the compound Cl.O=C(O/N=C(\Cn1ccnc1)c1ccc(Cl)cc1Cl)c1ccc2ccccc2c1 , what is its reported log10 of MIC?
2.41

Given the compound O=C(OC(Cn1ccnc1)c1ccc(Cl)cc1Cl)c1ccc(-c2ccc(-c3ccccc3)cc2)cc1 (racemic) , what is its reported log10 of MIC?
2.41

Given the compound Cl.O=C(O/N=C(\Cn1ccnc1)c1ccc(Cl)cc1Cl)c1ccc([N+](=O)[O-])cc1 , what is its reported log10 of MIC?
1.20

Given the compound Cc1ccc(C(=O)O/N=C(\Cn2ccnc2)c2ccc(Cl)cc2Cl)cc1 , what is its reported log10 of MIC?
2.41

Given the compound Cl.O=C(OC(Cn1ccnc1)c1ccc(Cl)cc1Cl)c1cc2ccccc2[nH]1 (racemic) , what is its reported log10 of MIC?
-0.60

Given the compound Cl.O=C(O/N=C(\Cn1ccnc1)c1ccc(Cl)cc1Cl)c1ccc(Cl)cc1Cl , what is its reported log10 of MIC?
1.81

Given the compound O/N=C(\Cn1ccnc1)c1ccc(Cl)cc1Cl , what is its reported log10 of MIC?
1.51

Given the compound O=C(O/N=C(\Cn1ccnc1)c1ccc(Cl)cc1Cl)c1ccccc1 , what is its reported log10 of MIC?
1.51

Given the compound COc1ccc(C(=O)OC(Cn2ccnc2)c2ccc(Cl)cc2Cl)cc1.Cl (racemic) , what is its reported log10 of MIC?
0.00

Given the compound Cl.O=C(O/N=C(\Cn1ccnc1)c1ccc(Cl)cc1Cl)c1cc2ccccc2[nH]1 , what is its reported log10 of MIC?
2.11

---

# System: Candida albicans
# Assay method text: Antifungal activity against azole-susceptible Candida albicans ATCC 90028 assessed as reduction in fungal growth incubated for 48 hrs by broth microdilution method
# Assay type: functional
# Protocol conditions: ATCC 90028, 48 h
Could you please mark Satisfied for values of MIC below 20 µg/mL and Not satisfied for values at or above it?

Solved cases (7 shown):
>>> category("CC(C)c1ccc(C(=O)O/N=C(\\Cn2ccnc2)c2ccc(Cl)cc2Cl)cc1.Cl")
"Satisfied"
>>> category("CSc1ccc(C(=O)OC(Cn2ccnc2)c2ccc(Cl)cc2Cl)cc1.Cl (racemic)")
"Satisfied"
>>> category("CC(C)(C)c1ccc(C(=O)O/N=C(\\Cn2ccnc2)c2ccc(Cl)cc2Cl)cc1")
"Satisfied"
>>> category("Cc1ccc(C(=O)O/N=C(\\Cn2ccnc2)c2ccc(Cl)cc2Cl)cc1")
"Not satisfied"
>>> category("Cl.O=C(O/N=C(\\Cn1ccnc1)c1ccc(Cl)cc1Cl)c1ccc(Cl)cc1Cl")
"Not satisfied"
>>> category("Cl.O=C(OC(Cn1ccnc1)c1ccc(Cl)cc1Cl)c1ccc2ccccc2c1 (racemic)")
"Satisfied"
>>> category("Cl.O=C(OC(Cn1ccnc1)c1ccc(Cl)cc1Cl)c1ccc(N2CCOCC2)cc1 (racemic)")
"Satisfied"

For the next question, use this compound.
Problem: For the compound O=C(O/N=C(\Cn1ccnc1)c1ccc(Cl)cc1Cl)c1ccccc1 , is MIC under 20 µg/mL?
Not satisfied
